# experimental.system: STK3 (Homo sapiens (Human), UniProt Q13188)
# Sequence (Q13188 whole entry): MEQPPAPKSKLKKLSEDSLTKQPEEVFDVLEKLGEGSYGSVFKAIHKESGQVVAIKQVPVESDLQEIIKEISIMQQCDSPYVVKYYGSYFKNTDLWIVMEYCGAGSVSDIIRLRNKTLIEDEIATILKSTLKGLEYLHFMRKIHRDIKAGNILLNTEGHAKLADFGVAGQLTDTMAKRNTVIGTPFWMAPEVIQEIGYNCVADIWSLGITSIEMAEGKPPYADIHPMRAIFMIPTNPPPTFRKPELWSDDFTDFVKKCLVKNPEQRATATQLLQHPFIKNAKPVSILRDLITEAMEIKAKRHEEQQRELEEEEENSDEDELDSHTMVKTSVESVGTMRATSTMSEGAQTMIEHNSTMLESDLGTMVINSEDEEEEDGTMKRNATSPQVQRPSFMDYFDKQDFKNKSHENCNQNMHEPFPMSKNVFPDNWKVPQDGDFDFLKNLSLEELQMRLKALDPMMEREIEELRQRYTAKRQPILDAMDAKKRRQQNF
# assay.details: Thermal shift assay (ThermoFluor differential scanning fluorimetry)
# Assay type: binding
# particulars: read-out: ΔTm
property.name: ΔTm at 10 µM (°C)
Give the value, in units of °C, as a plain number.

Below: 5 compounds and their reported ΔTm at 10 µM.
* Clc1cccc(-c2c[nH]c3ncnc(N4CCCCC4)c23)c1 | 8.3
* Fc1cccc(-c2c[nH]c3ncnc(N4CCOCC4)c23)c1 | 8.4
* NC(=O)c1cccc(-c2c[nH]c3ncnc(N4CCOCC4)c23)c1 | 7.4
* OC1CCN(c2ncnc3[nH]cc(-c4cccc(Cl)c4)c23)CC1 | 8
* Clc1cccc(-c2c[nH]c3ncnc(N4CCOCC4)c23)c1 | 8.1

INPUT: Query (compound): Clc1cccc(-c2c[nH]c3nccc(N4CCOCC4)c23)c1 ; field requested: ΔTm at 10 µM
OUTPUT: 7.9

----------
concentration at 30 min for assorted molecules
# assay.details: In vivo plasma and liver concentrations, 20 mg/kg intraperitoneal
# particulars: female, C57BL/6J, mouse, ip, 20 mg/kg
Note: unit µM is implicit; provide only the numeric part.

Some molecules with recorded concentration at 30 min:
* Cc1cccc(-c2c[nH]c3ncnc(N4CCOCC4)c23)c1 | 2.8
* Fc1cccc(-c2c[nH]c3ncnc(N4CCOCC4)c23)c1 | 6
* CN(CCO)c1ncnc2[nH]cc(-c3cccc(Cl)c3)c12 | 7.3
* Clc1cccc(-c2c[nH]c3ncnc(N4CCOCC4)c23)c1 | 6.9

Let us examine a further case.
INPUT: Form field: reported concentration at 30 min of Clc1cccc(-c2c[nH]c3ncnc(N4CCCCC4)c23)c1
OUTPUT: 3.7

----------
# assay.details: Kinetic solubility
# Assay type: physicochemical
# particulars: FaSSGF, fassgf or other biorelevant, kinetic from dmso stock, FaSSGF, read-out: Solubility, FASSGF
Measured solubility values are reported for all entries that follow.
The answer is to be given in µM; state only the numeric part.

INPUT: What value of solubility has been recorded for this entry: Clc1cccc(-c2c[nH]c3ncnc(N4CCOCC4)c23)c1 [Compound 6]
OUTPUT: 353

INPUT: Endpoint output: solubility of Clc1cccc(-c2c[nH]c3nccc(N4CCOCC4)c23)c1 [Compound 23] . Value?
OUTPUT: 372

INPUT: Need solubility, item OC1CCN(c2ncnc3[nH]cc(-c4cccc(Cl)c4)c23)CC1 [Compound 16]
OUTPUT: 352

INPUT: Can you share its solubility? I mean this molecule: NC(=O)c1cccc(-c2c[nH]c3ncnc(N4CCOCC4)c23)c1 [Compound 11]
OUTPUT: 430

----------
# assay.details: in vivo
# particulars: female, C57BL/6J, mouse, ip, 10 mg/kg
Here, each record is paired with measured half-life data.
Just the number in h, nothing appended.

# count of solved cases: 2
• OC1CCN(c2ncnc3[nH]cc(-c4cccc(Cl)c4)c23)CC1 = 9.9
• CC(=O)NC1CCN(c2ncnc3[nH]cc(-c4cccc(Cl)c4)c23)CC1 = 5.3

Then there is this molecule:
INPUT: Name the reported half-life value associated with the molecule NC(=O)c1cccc(-c2c[nH]c3ncnc(N4CCOCC4)c23)c1
OUTPUT: 0.7

----------
# assay.details: Kinetic solubility
# Assay type: physicochemical
# particulars: FaSSIF, kinetic from dmso stock, FaSSIF, read-out: Solubility, FaSSIF
property.name: solubility (µM)
Hi! Could you send only the number? It should be in µM, unit omitted.

For orientation, consider the following solved cases.
* Clc1cccc(-c2c[nH]c3nccc(N4CCOCC4)c23)c1 [Compound 23] | 7
* NC(=O)c1cccc(-c2c[nH]c3ncnc(N4CCOCC4)c23)c1 [Compound 11] | 136
* Clc1cccc(-c2c[nH]c3ncnc(N4CCOCC4)c23)c1 [Compound 6] | 35.7

Now look at this entry.
INPUT: For OC1CCN(c2ncnc3[nH]cc(-c4cccc(Cl)c4)c23)CC1 [Compound 16] , what is its reported solubility?
OUTPUT: 294

----------
# experimental.system: STK4 (Homo sapiens (Human), UniProt Q13043)
# Sequence (Q13043 whole entry): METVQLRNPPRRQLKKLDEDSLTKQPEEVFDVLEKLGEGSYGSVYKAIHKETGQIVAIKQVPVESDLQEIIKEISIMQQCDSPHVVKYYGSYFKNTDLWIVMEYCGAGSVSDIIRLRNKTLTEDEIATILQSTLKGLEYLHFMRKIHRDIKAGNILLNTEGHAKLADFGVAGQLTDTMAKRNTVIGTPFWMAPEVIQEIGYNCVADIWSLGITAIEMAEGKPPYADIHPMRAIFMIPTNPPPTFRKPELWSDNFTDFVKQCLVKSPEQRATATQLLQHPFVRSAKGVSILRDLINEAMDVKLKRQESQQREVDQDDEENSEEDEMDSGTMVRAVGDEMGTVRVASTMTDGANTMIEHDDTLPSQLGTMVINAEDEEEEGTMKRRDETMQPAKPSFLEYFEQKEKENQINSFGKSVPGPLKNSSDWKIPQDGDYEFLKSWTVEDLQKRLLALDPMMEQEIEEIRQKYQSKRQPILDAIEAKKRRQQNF
# assay.details: ADP-Glo kinase assay, STK4
# Format: biochemical
# particulars: ADP-Glo, 50 μM ATP; read-out: STK4 IC50
pIC50: −log10 of the molar value.
# pIC50 listing for each entry below

- Clc1cccc(-c2c[nH]c3ncnc(NCc4ccn[nH]4)c23)c1 [Compound 59]: > 6.00
- COC1CCN(c2ncnc3[nH]cc(-c4cccc(Cl)c4)c23)CC1 [Compound 110]: > 6.00
- O=[N+]([O-])c1ccc(Nc2nc(N3CCOCC3)c3c(-c4cccc(Cl)c4)c[nH]c3n2)cc1 [Compound 101]: < 5.30
- Clc1cccc(-c2c[nH]c3ncnc(NCCC(c4ccccc4)c4ccccc4)c23)c1 [Compound 88]: < 5.30
- CNS(=O)(=O)c1ccc(Nc2nc(N3CCOCC3)c3c(-c4cccc(Cl)c4)c[nH]c3n2)cc1 [Compound 98]: > 6.00
- Cn1cc(-c2c[nH]c3ncnc(N4CCOCC4)c23)cn1 [Compound 41]: > 6.00

INPUT: Quick check: pIC50 on STK4 (Homo sapiens (Human), UniProt Q13043), item N#Cc1ccc(Nc2nc(N3CCOCC3)c3c(-c4cccc(Cl)c4)c[nH]c3n2)cc1 [Compound 120] ?
OUTPUT: < 5.30

INPUT: pIC50 of CC(CNc1ncnc2[nH]cc(-c3cccc(Cl)c3)c12)C(N)=O (stereo not drawn) [Compound 125] on STK4 (Homo sapiens (Human), UniProt Q13043)?
OUTPUT: > 6.00

INPUT: Could you share what pIC50 was measured for Clc1cc(-c2c[nH]c3ncnc(N4CCOCC4)c23)ccn1 [Compound 31] , tested on STK4 (Homo sapiens (Human), UniProt Q13043)?
OUTPUT: 5.30 to 6.00

INPUT: Recall the recorded pIC50 for COc1ccc(CNc2ncnc3[nH]cc(-c4cccc(Cl)c4)c23)c(OC)c1 [Compound 73] with STK4 (Homo sapiens (Human), UniProt Q13043) and state it.
OUTPUT: 5.30 to 6.00

INPUT: Enter reported pIC50 observed with STK4 (Homo sapiens (Human), UniProt Q13043) for CC(=O)NC1CCN(c2ncnc3[nH]cc(-c4cccc(Cl)c4)c23)CC1 [Compound 105]
OUTPUT: > 6.00

INPUT: Value wanted: pIC50 (STK4 (Homo sapiens (Human), UniProt Q13043)) of entry Clc1cccc(-c2c[nH]c3ncnc(N4CCC(c5ccccc5)CC4)c23)c1 [Compound 87]
OUTPUT: < 5.30

----------
# Test system: Caco-2 cell
# assay.details: Caco-2 permeability
# Assay type: in vitro ADME
# particulars: Caco-2, classification
property.name: Permeability

* Clc1cccc(-c2c[nH]c3nccc(N4CCOCC4)c23)c1 | High
* OC1CCN(c2ncnc3[nH]cc(-c4cccc(Cl)c4)c23)CC1 | High
* Clc1cccc(-c2c[nH]c3ncnc(N4CCOCC4)c23)c1 | High

----------
# experimental.system: STK3 (Homo sapiens (Human), UniProt Q13188)
# assay.details: ADP-Glo kinase assay, STK3
# Type: biochemical
# particulars: ADP-Glo, 50 μM ATP; read-out: STK3 IC50
pIC50: −log10 of the molar value.
Overview of reported pIC50 across a group of compounds:

Past entries and their recorded results:
• COc1ccc(CNc2ncnc3[nH]cc(-c4cccc(Cl)c4)c23)c(OC)c1 [Compound 73] = < 5.30
• CCCNc1ncnc2[nH]cc(-c3cccc(Cl)c3)c12 [Compound 50] = > 6.00
• CC(CO)CNc1ncnc2[nH]cc(-c3cccc(Cl)c3)c12 (stereo not drawn) [Compound 117] = > 6.00
• CNCC(C)CNc1ncnc2[nH]cc(-c3cccc(Cl)c3)c12 (stereo not drawn) [Compound 131] = < 5.30
• Clc1cccc(-c2c[nH]c3ncnc(NCc4ccn[nH]4)c23)c1 [Compound 59] = 5.30 to 6.00

INPUT: Entry Clc1cccc(-c2c[nH]c3ncnc(NCCN4CCCC4)c23)c1 [Compound 83] has what pIC50?
OUTPUT: < 5.30

INPUT: Which pIC50 is listed for COCCNc1ncnc2[nH]cc(-c3cccc(Cl)c3)c12 [Compound 58] ?
OUTPUT: < 5.30

INPUT: // lookup pIC50 for Cc1cccc(CNc2ncnc3[nH]cc(-c4cccc(Cl)c4)c23)c1 [Compound 91]
OUTPUT: < 5.30

INPUT: # lookup: pIC50 of CC(CN)CNc1ncnc2[nH]cc(-c3cccc(Cl)c3)c12 (stereo not drawn) [Compound 127]
OUTPUT: > 6.00

----------
# experimental.system: STK3 (Homo sapiens (Human))
# assay.details: ADP-Glo kinase assay, STK3
# Assay type: biochemical
# particulars: ADP-Glo, 50 μM ATP; read-out: STK3 IC50
property.name: IC50

Example results:
- CC(C)CCNc1ncnc2[nH]cc(-c3cccc(Cl)c3)c12 [Compound 64]: 1 to 5 µM
- Clc1cccc(-c2c[nH]c3ncnc(N4CCC(c5ccccc5)CC4)c23)c1 [Compound 87]: > 5 µM

INPUT: Look at this molecule and give its reported IC50. Clc1ccc(-c2c[nH]c3ncnc(N4CCOCC4)c23)cc1Cl [Compound 30]
OUTPUT: 1 to 5 µM
